Test system: RAW-Dual (murine macrophage reporter line)
ASSAY NAME: IRF reporter (Lucia luciferase) activity fold change vs agonist alone; higher = enhanced IRF activity
EXPERIMENTAL CONTEXT: modulator concentration 10 µM; agonist: 3'3'-cGAMP 10 ug/mL
PROPERTY NAME: IRF reporter

Query block: Give the reported IRF reporter for "Cc1cc(C)nc(Nc2ncc(O)n2-c2ccc(F)cc2)n1" (system: RAW-Dual (murine macrophage reporter line)).
Result block: 0.992

Query block: Please provide the recorded IRF reporter for O=C(NC1CCC(Oc2ncc(F)cn2)CC1)c1cccc(F)c1 (stereo not drawn) , tested on RAW-Dual (murine macrophage reporter line).
Result block: 1.01

Query block: Provide the documented IRF reporter with RAW-Dual (murine macrophage reporter line) as the system for "CC(=O)c1cccc(NC(=O)CSc2nnc3c4ccccc4n(C)c3n2)c1"
Result block: 0.904

Query block: Hello, I am looking for reported IRF reporter with RAW-Dual (murine macrophage reporter line) for "O=C(Cc1ccc([N+](=O)[O-])cc1)NN=Cc1ccccn1" . Could you help?
Result block: 0.89

Query block: Tell me reported IRF reporter for "O=C(NCCc1nc(C2CC2)cc(C(F)(F)F)n1)c1c(F)cccc1Cl" , tested with RAW-Dual (murine macrophage reporter line).
Result block: 1.01

Query block: I'm curious: which IRF reporter was measured for "OC(Cn1cncn1)(Cn1cncn1)c1ccc(F)cc1F" tested on RAW-Dual (murine macrophage reporter line)?
Result block: 1.02

Query block: Notebook: pull reported IRF reporter for RAW-Dual (murine macrophage reporter line), entry O=C(COc1ccccc1)N1CCCC1Cn1nccn1 (stereo not drawn)
Result block: 0.904

Query block: Find the measured IRF reporter: item CC1=C(C(N)=O)C(c2cccs2)NC(=O)N1 (stereo not drawn) , target or system RAW-Dual (murine macrophage reporter line).
Result block: 1.01
